Test system: HMEC1
Experiment: Inhibition of cells growth by colorimetric assay (SRB), HMEC1
Assay type: cell-based
Settings: Homo sapiens, HMEC-1, 48 h, HMEC-1; SRB, 48 hours exposure; read-out: HMEC-1 GI50
Note to self: GI50 under 9 nM means class 1, ties and anything higher get class 0.

COMPOUND: COC1=C(C)C(=O)C2=C(C1=O)[C@@H]1C3[C@@H]4SC[C@]5(NCCc6cc(O)c(OC)cc65)C(=O)OC[C@@H](c5c6c(c(C)c(OC(C)=O)c54)OCO6)N3[C@@H](O)[C@H](C2)N1C (some centres unmarked) [Compound 101]
CLASS_ASSIGNMENT: class 1
//
COMPOUND: C=COC(=O)N1CCc2cc(O)c(OC)cc2[C@@]12CS[C@@H]1c3c(OC(C)=O)c(C)c4c(c3[C@H](COC2=O)N2C1[C@H]1c3c(cc(C)c(OC)c3O)C[C@@H]([C@@H]2O)N1C)OCO4 (some centres unmarked) [Compound 95]
CLASS_ASSIGNMENT: class 0
//
COMPOUND: COc1cc2c(cc1O)CCN(C)[C@]21CS[C@@H]2c3c(OC(C)=O)c(C)c4c(c3[C@H](COC1=O)N1C2[C@H]2c3c(cc(C)c(OC)c3O)C[C@@H]([C@@H]1O)N2C)OCO4 (some centres unmarked) [Compound 93]
CLASS_ASSIGNMENT: class 1
//
COMPOUND: C=COC(=O)Oc1cc2c(cc1OC)[C@@]1(CS[C@@H]3c4c(OC(C)=O)c(C)c5c(c4[C@H](COC1=O)N1C3[C@H]3c4c(cc(C)c(OC)c4O)C[C@@H]([C@@H]1O)N3C)OCO5)N(C(=O)OC=C)CC2 (some centres unmarked) [Compound 100]
CLASS_ASSIGNMENT: class 0
//
COMPOUND: COc1cc2c(cc1OC)[C@@]1(CS[C@@H]3c4c(OC(C)=O)c(C)c5c(c4[C@H](COC1=O)N1C3[C@H]3c4c(cc(C)c(OC)c4OC)C[C@@H]([C@@H]1O)N3C)OCO5)NCC2 (some centres unmarked) [Compound 87]
CLASS_ASSIGNMENT: class 0

* * *

Parameter log10(GI50): see the listing below.
Test system: LoVo
Assay: Inhibition of cells growth by colorimetric assay (SRB), LoVo
Assay type: cell-based
Conditions: Homo sapiens, LoVo, 48 h, SRB assay, 48 hours exposure; read-out: LOVO GI50
RECORDED_METRIC: log10(GI50) (log10 of the value in nM)

COMPOUND: COc1cc2c(cc1O)CCN[C@]21CS[C@@H]2c3c(OC(=O)CCCCC4SCC5NC(=O)NC54)c(C)c4c(c3[C@H](COC1=O)N1C2[C@H]2c3c(cc(C)c(OC)c3O)C[C@@H]([C@@H]1O)N2C)OCO4 (some centres unmarked)
log10(GI50): 1.37

COMPOUND: COc1cc2c(cc1O)CCN[C@]21CS[C@@H]2c3c(OC(=O)CCCCC4SCC5NC(=O)NC54)c(C)c4c(c3[C@H](COC1=O)N1C2[C@H]2c3c(cc(C)c(OC)c3OC(=O)CCCCC3SCC5NC(=O)NC53)C[C@@H]([C@@H]1O)N2C)OCO4 (some centres unmarked)
log10(GI50): 2.35

COMPOUND: COc1cc2c(cc1OC(=O)OC(C)(C)C)CCN[C@]21CS[C@@H]2c3c(OC(=O)[C@H](C)NC(=O)OC(C)(C)C)c(C)c4c(c3[C@H](COC1=O)N1C2[C@H]2c3c(cc(C)c(OC)c3O)C[C@@H]([C@@H]1O)N2C)OCO4 (some centres unmarked)
log10(GI50): 0.36

COMPOUND: COc1cc2c(cc1O)CCN[C@]21CS[C@@H]2c3c(O)c(C)c4c(c3[C@H](COC1=O)N1C2[C@H]2c3c(cc(C)c(OC)c3O)C[C@@H]([C@@H]1O)N2C)OCO4 (some centres unmarked)
log10(GI50): 0.66

COMPOUND: C=COC(=O)Oc1c(C)c2c(c3c1[C@H]1SC[C@]4(NCCc5cc(OC(=O)OC(C)(C)C)c(OC)cc54)C(=O)OC[C@@H]3N3C1[C@H]1c4c(cc(C)c(OC)c4O)C[C@@H]([C@@H]3O)N1C)OCO2 (some centres unmarked)
log10(GI50): 1.05

Just for reference, patent US7759345B2 is where these values come from.
